Biological target: T1, EsCas13d, nuclease-dead (Eubacterium siraeum, UniProt B0MS50, R295A;H300A;R849A;H854A)
T1 sequence: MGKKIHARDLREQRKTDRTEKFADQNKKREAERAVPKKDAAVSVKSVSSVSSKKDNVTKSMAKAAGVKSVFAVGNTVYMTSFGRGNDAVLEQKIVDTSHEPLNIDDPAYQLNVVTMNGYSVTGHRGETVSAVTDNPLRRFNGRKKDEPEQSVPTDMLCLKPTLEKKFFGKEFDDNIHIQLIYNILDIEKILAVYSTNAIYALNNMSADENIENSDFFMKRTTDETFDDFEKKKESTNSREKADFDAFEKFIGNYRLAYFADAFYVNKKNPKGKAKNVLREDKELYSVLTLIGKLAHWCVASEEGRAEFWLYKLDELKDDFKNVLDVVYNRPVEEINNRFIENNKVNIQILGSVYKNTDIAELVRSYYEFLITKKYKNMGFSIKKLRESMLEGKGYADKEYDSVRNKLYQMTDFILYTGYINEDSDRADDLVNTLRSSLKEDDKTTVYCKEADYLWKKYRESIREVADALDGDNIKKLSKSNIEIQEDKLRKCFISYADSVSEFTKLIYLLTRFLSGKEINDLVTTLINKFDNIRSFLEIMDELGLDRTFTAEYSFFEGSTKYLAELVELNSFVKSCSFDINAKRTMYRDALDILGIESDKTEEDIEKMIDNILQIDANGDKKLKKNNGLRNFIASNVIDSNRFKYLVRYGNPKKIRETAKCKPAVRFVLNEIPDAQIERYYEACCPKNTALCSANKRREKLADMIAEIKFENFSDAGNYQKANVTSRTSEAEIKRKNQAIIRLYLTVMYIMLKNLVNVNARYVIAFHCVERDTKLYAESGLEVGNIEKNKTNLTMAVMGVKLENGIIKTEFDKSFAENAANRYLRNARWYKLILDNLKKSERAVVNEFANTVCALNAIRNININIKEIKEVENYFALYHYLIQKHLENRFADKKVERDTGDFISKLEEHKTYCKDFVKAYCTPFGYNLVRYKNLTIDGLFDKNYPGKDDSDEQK
Test: crRNA (strand 1, pre-loaded); Mg2+; 40 mM Tris-HCl pH 7.5, 150 mM NaCl, 6 mM MgCl2, 1 mM DTT, 0.1% Tween-20, 0.2 mg/ml BSA; 25 C; 10 min per concentration, then washed
Details: tags: His6-TwinStrep-SUMO cleaved; N-terminal SNAP kept (SNAP-Surface 488); label: 3' end held by stalled T7 RNA polymerase
Would you kindly list pKd for each of these binders?
On this scale, pKd is minus log10 of a concentration expressed in M (mol/L).

Query: Give the measured pKd for target 1 MT 5'PFS GUA 3'PFS UUU (mixed) RNA 1: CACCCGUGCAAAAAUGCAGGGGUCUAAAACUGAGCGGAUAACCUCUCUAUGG RNA 2: GGGAAUGGAUCCACAUCUACGAAUUCGUACCAUAGAGAGGUUAUCCGCUCAUUUAGAUCGGAAGAGCACACGU
Response: 8.09

Query: Give the measured pKd for target 1 C2A,G15A (mixed) RNA 1: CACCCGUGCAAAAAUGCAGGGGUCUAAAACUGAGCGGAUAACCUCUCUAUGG RNA 2: GGGAAUGGAUCCACAUCUACGAAUUCGUACCAUAGAAAGGUUAUCCGCUAACCGAGAUCGGAAGAGCACACGU
Response: 7.69

Query: Give the measured pKd for target 2 MT 5'PFS GAG 3'PFS CCG (mixed) RNA 1: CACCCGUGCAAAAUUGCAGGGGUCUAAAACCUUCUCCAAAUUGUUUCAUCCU RNA 2: GGGAAUGGAUCCACAUCUACGAAUUCGAGAGGAUGAAACAAUUUGGAGAAGCCGAGAUCGGAAGAGCACACGU
Response: 8.17

Query: Give the measured pKd for target 1 MT 5'PFS GCU 3'PFS CUA (mixed) RNA 1: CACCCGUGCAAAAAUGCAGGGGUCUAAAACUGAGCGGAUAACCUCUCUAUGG RNA 2: GGGAAUGGAUCCACAUCUACGAAUUCGCUCCAUAGAGAGGUUAUCCGCUCACUAAGAUCGGAAGAGCACACGU
Response: 7.28

Query: Give the measured pKd for target 2 MT 5'PFS AUA 3'PFS ACC (mixed) RNA 1: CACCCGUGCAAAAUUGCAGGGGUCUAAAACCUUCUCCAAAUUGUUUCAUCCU RNA 2: GGGAAUGGAUCCACAUCUACGAAUUCAUAAGGAUGAAACAAUUUGGAGAAGACCAGAUCGGAAGAGCACACGU
Response: 7.97

Query: Give the measured pKd for target 1 insG 3' of 22,insG 3' of 14 (mixed) RNA 1: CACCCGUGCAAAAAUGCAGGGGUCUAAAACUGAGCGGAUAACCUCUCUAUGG RNA 2: GGGAAUGGAUCCACAUCUACGAAUUCGUACGCAUAGAGAGGGUUAUCCGCUCACCGAGAUCGGAAGAGCACACGU
Response: 7.54

Query: Give the measured pKd for target 1 C2G,G13A (mixed) RNA 1: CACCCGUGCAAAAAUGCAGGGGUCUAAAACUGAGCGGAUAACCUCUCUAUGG RNA 2: GGGAAUGGAUCCACAUCUACGAAUUCGUACCAUAGAGAAGUUAUCCGCUGACCGAGAUCGGAAGAGCACACGU
Response: 8.27

Query: Give the measured pKd for target 2 MT 5'PFS UAA 3'PFS CUU (mixed) RNA 1: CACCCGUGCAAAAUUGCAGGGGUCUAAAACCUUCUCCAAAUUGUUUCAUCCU RNA 2: GGGAAUGGAUCCACAUCUACGAAUUCUAAAGGAUGAAACAAUUUGGAGAAGCUUAGAUCGGAAGAGCACACGU
Response: 8.16

Query: Give the measured pKd for target 1 MT 5'PFS GCC 3'PFS AGU (mixed) RNA 1: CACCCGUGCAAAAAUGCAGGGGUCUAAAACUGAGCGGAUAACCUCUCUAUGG RNA 2: GGGAAUGGAUCCACAUCUACGAAUUCGCCCCAUAGAGAGGUUAUCCGCUCAAGUAGAUCGGAAGAGCACACGU
Response: 7.57

Query: Give the measured pKd for target 1 MT 5'PFS CCU 3'PFS CUA (mixed) RNA 1: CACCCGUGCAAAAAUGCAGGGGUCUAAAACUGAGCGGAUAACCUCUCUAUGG RNA 2: GGGAAUGGAUCCACAUCUACGAAUUCCCUCCAUAGAGAGGUUAUCCGCUCACUAAGAUCGGAAGAGCACACGU
Response: 7.90

Query: Give the measured pKd for target 1 MT 5'PFS UCG 3'PFS UAC (mixed) RNA 1: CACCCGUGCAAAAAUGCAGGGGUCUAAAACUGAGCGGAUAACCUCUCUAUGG RNA 2: GGGAAUGGAUCCACAUCUACGAAUUCUCGCCAUAGAGAGGUUAUCCGCUCAUACAGAUCGGAAGAGCACACGU
Response: 7.65

Query: Give the measured pKd for target 1 MT 5'PFS GUC 3'PFS AUC (mixed) RNA 1: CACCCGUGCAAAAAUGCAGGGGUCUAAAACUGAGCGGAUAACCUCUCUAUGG RNA 2: GGGAAUGGAUCCACAUCUACGAAUUCGUCCCAUAGAGAGGUUAUCCGCUCAAUCAGAUCGGAAGAGCACACGU
Response: 7.55

Query: Give the measured pKd for target 1 MT 5'PFS AGC 3'PFS AUA (mixed) RNA 1: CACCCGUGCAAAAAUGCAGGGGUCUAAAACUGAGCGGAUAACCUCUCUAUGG RNA 2: GGGAAUGGAUCCACAUCUACGAAUUCAGCCCAUAGAGAGGUUAUCCGCUCAAUAAGAUCGGAAGAGCACACGU
Response: 7.25

Query: Give the measured pKd for target 2 MT 5'PFS GUA 3'PFS AUG (mixed) RNA 1: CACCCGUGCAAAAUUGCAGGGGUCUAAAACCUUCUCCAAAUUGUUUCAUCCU RNA 2: GGGAAUGGAUCCACAUCUACGAAUUCGUAAGGAUGAAACAAUUUGGAGAAGAUGAGAUCGGAAGAGCACACGU
Response: 8.11
